Experiment: NCI Yeast Anticancer Drug Screen. Data for the wt1 strain (AID 149);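 also: 0% = growth of vehicle-treated wt1 cultures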
Conditions: S. cerevisiae wt1 strain (SPY 50644) growth inhibition; at 11.0 µM; active compounds read high
The panel holds about 79,000 compounds, 15% with a hit somewhere; the sample as a whole holds those more often.
Reported metric: growth inhibition (%)
Response body: numeric value in %, unit text excluded.

Record excerpt, results attached:
Request: Item under review: CC(=O)[C@]1(O)Cc2c(O)c3c(c(O)c2[C@@H](OC2CC(N)C(O)C(C)O2)C1)C(=O)c1c(OCc2ccccc2)cccc1C3=O (some centres not stated) . Reported growth inhibition?
Result: 5

Request: Then CN(C)CCNc1cccc2sc3ccc(O)cc3c(=O)c12 ?
Result: 3

Request: Then C(=N/NC1=NCCN1)/c1c2ccccc2c(/C=N\NC2=NCCN2)c2ccccc12 ?
Result: 9

Request: Then CCCCC1=NNC(=O)C1 ?
Result: 8

Request: Then [Pt].c1ccc(P(CCP(c2ccccc2)c2ccccc2)CCP(c2ccccc2)c2ccccc2)cc1 ?
Result: 19

Request: Then COc1ccc(N=N/C(=N\NC(=O)c2cc(Br)ccc2O)c2ccc(N(CCC#N)CCC#N)cc2OC)cc1 ?
Result: 9

Further cases:
Request: Item under review: Cc1cc(Cl)nc2nc(Cl)c(N)cc12 . Reported growth inhibition?
Result: -2

The measurements presented in this section are drawn from PubChem BioAssay (NCI).
